# Species on record: Rattus norvegicus
# assayRemarks: Open TG-GATES - Regimen: Single
# Assay type: toxicity, organism-based, Sprague-Dawley
# Design: regimen Single, gender Male, age 6 weeks
# measurementConditions: in vivo, po, 300 mg/kg, 6 h, tissue Plasma, route gavage, dose level Middle
Kindly supply the reported K values for the records listed here.
Report the value in meq/L with no unit label.

*Q* Param item = C[C@H](CS)C(=O)N1CCC[C@H]1C(=O)O ; retrieve measured K.
*A* 4.8

*Q* Field entry: Clc1ccccc1CN1CCc2sccc2C1
*A* 3.9

*Q* Field entry: O=C(O)c1cn(C2CC2)c2cc(N3CCNCC3)c(F)cc2c1=O
*A* 5.1

*Q* Field entry: O=C(O)c1cc(/N=N/c2ccc(S(=O)(=O)Nc3ccccn3)cc2)ccc1O
*A* 4

*Q* Field entry: CCc1cc(C(N)=S)ccn1 [ETHIONAMIDE]
*A* 4.3

====

Kindly supply the reported LIVER values for the records listed here.
# Organism: Rattus norvegicus
# assayRemarks: Open TG-GATES - Regimen: Single
# Type: toxicity, organism-based, Sprague-Dawley
# Set-up: regimen Single, gender Male, age 6 weeks
# measurementConditions: in vivo, po, 300 mg/kg, 3 h, tissue Liver, route gavage, dose level Middle
Report the value in g with no unit label.

*Q* Param item = O=C(O)c1cn(C2CC2)c2cc(N3CCNCC3)c(F)cc2c1=O ; retrieve measured LIVER.
*A* 9

*Q* Field entry: Clc1ccccc1CN1CCc2sccc2C1
*A* 9

*Q* Field entry: C[C@H](CS)C(=O)N1CCC[C@H]1C(=O)O
*A* 11.2

*Q* Field entry: CCc1cc(C(N)=S)ccn1 [ETHIONAMIDE]
*A* 11.4

*Q* Field entry: O=C(O)c1cc(/N=N/c2ccc(S(=O)(=O)Nc3ccccn3)cc2)ccc1O
*A* 9.7

====

Kindly supply the reported Mono values for the records listed here.
# Species: Rattus norvegicus
# assayRemarks: Open TG-GATES - Regimen: Single
# Assay type: toxicity, organism-based, Sprague-Dawley
# Parameters: regimen Single, gender Male, age 6 weeks
# measurementConditions: in vivo, po, 1000 mg/kg, 9 h, tissue Blood, route gavage, dose level High
Report the value in % with no unit label.

*Q* Param item = O=C(O)c1cn(C2CC2)c2cc(N3CCNCC3)c(F)cc2c1=O [CIPROFLOXACIN] ; retrieve measured Mono.
*A* 5.8

*Q* Field entry: CCc1cc(C(N)=S)ccn1 [ETHIONAMIDE]
*A* 8.4

*Q* Field entry: C[C@H](CS)C(=O)N1CCC[C@H]1C(=O)O [CAPTOPRIL]
*A* 4.8

*Q* Field entry: O=C(O)c1cc(/N=N/c2ccc(S(=O)(=O)Nc3ccccn3)cc2)ccc1O [SULFASALAZINE]
*A* 1.2

*Q* Field entry: Clc1ccccc1CN1CCc2sccc2C1 [TICLOPIDINE]
*A* 2.2

====

Kindly supply the reported KIDNEY_R values for the records listed here.
# Species on record: Rattus norvegicus
# assayRemarks: Open TG-GATES - Regimen: Single
# Format: toxicity, organism-based, Sprague-Dawley
# Set-up: regimen Single, gender Male, age 6 weeks
# measurementConditions: in vivo, po, 1000 mg/kg, 24 h, tissue Kidney, route gavage, dose level High

*Q* Param item = Clc1ccccc1CN1CCc2sccc2C1 [TICLOPIDINE] ; retrieve measured KIDNEY_R.
*A* 0.9 g

*Q* Field entry: C[C@H](CS)C(=O)N1CCC[C@H]1C(=O)O [CAPTOPRIL]
*A* 1.1 g

*Q* Field entry: CCc1cc(C(N)=S)ccn1 [ETHIONAMIDE]
*A* 1 g

*Q* Field entry: O=C(O)c1cn(C2CC2)c2cc(N3CCNCC3)c(F)cc2c1=O [CIPROFLOXACIN]
*A* 0.9 g

*Q* Field entry: O=C(O)c1cc(/N=N/c2ccc(S(=O)(=O)Nc3ccccn3)cc2)ccc1O [SULFASALAZINE]
*A* 1 g
